These data points were gathered from paper PMC9250534.

Can you tell me fraction fluorescent probe displaced, Screen for the items I'm about to list?
molecular target: UniProt:Q00987; assay: MDM2 binding screen: displacement of fluorescent p53 peptide probe FP53 (fluorescence polarization); details: Acid 14; initial screen; crude macrocycle reactions

Item under review: O=C1CCSSCCNC(=O)C2(CCN(C(=O)c3ccc(Cl)s3)CC2)NC(=O)[C@H](Cc2c[nH]c3ccccc23)NC(=O)CCN1 [X B2 W D6 Acid 14] . Reported fraction fluorescent probe displaced, Screen? 0.14

Now give it for O=C1CCSSCCNC(=O)c2cccc(c2)CNC(=O)C2CC(NC(=O)c3ccc(Cl)s3)CN2C(=O)C(Cc2ccccc2)N1 (stereo not drawn) [X F D5 B5 Acid 14] too. -0.00483

# repeat for O=C1NC(Cc2ccccc2)C(=O)NCCSSCCC(=O)N2CC(NC(=O)c3ccc(Cl)s3)CC2C(=O)NCc2cccc1c2 (stereo not drawn) [X D5 B5 F Acid 14] -0.0337

* * *

target: UniProt Q00987; assay: MDM2 binding screen of Libraries 3 and 4: displacement of fluorescent probe F-M8 at 750 nM macrocycle; details: Panel c, Library 4: best nine scaffolds and 15 additional carboxylic acids; displacement of fluorescent probe
Kindly supply the reported fraction of fluorescent probe displaced values for the records listed here.
Could you respond with only the numeric value?

GET /values?readout=fraction of fluorescent probe displaced&item= O=C(/C=C/c1ccc(Cl)c(Cl)c1)NC[C@@H]1NC(=O)[C@H]2CCCN(C2)C(=O)CCSSCCNC(=O)[C@H](Cc2cccc3ccccc23)NC1=O [X-Nip-Dap-1-NaI + Acid 119] 0.0035

Same read-out for O=C(/C=C/c1ccc(Cl)c(Cl)c1)NC[C@@H]1NC(=O)[C@H]2CCCN(C2)C(=O)CCSSCCNC(=O)[C@H](Cc2c[nH]c3ccccc23)NC1=O [X-Nip-Dap-Trp + Acid 119] ? 0.435

CCCOc1ccc(/C=C/C(=O)NC[C@@H]2NC(=O)[C@H]3CCCN(C3)C(=O)CCSSCCNC(=O)[C@H](Cc3c[nH]c4ccccc34)NC2=O)cc1 [X-Nip-Dap-Trp + Acid 118] , same question. 0.435

And for O=C(/C=C/c1ccc(Cl)c(Cl)c1)NC[C@@H]1NC(=O)[C@@H]2CN(CCO2)C(=O)CCSSCCNC(=O)[C@H](Cc2c[nH]c3cc(Cl)ccc23)NC1=O [X-Cop-Dap-Cl-Trp + Acid 119] ? 0.126

Check O=C(/C=C/c1cccc(C(F)(F)F)c1)NC[C@@H]1NC(=O)[C@H]2CCCN(C2)C(=O)CCSSCCNC(=O)[C@H](Cc2c[nH]c3cc(Cl)ccc23)NC1=O [X-Nip-Dap-Cl-Trp + Acid 122] too. 0.166

For O=C(/C=C/c1cccc(Cl)c1)NC[C@@H]1NC(=O)[C@H]2CCCN(C2)C(=O)CCSSCCNC(=O)[C@H](Cc2cccc3ccccc23)NC1=O [X-Nip-Dap-1-NaI + Acid 121] then? -0.00464

And the next one, O=C(/C=C/c1ccc(Cl)c(Cl)c1)NC[C@@H]1NC(=O)C2(CC2)CNC(=O)CCSSCCNC(=O)[C@H](Cc2c[nH]c3ccccc23)NC1=O [X-Amcp-Dap-Trp + Acid 119] ? 0.069

Same read-out for O=C(/C=C/c1cccc(Cl)c1)NC[C@@H]1NC(=O)[C@H]2CCCN(C2)C(=O)CCSSCCNC(=O)[C@H](Cc2c[nH]c3cc(Cl)ccc23)NC1=O [X-Nip-Dap-Cl-Trp + Acid 121] ? 0.207

Repeat for the following compound: CCOc1ccc(/C=C/C(=O)NC[C@@H]2NC(=O)[C@H]3CCCN(C3)C(=O)CCSSCCNC(=O)[C@H](Cc3ccc4ccccc4c3)NC2=O)cc1 [X-Nip-Dap-2-Nal + Acid 117] 0.069

Please answer likewise for CC(C)c1ccc(/C=C/C(=O)O)cc1 [Acid 127] -0.021

And the next one, O=C(O)/C=C/c1ccc(F)cc1 [Acid 116] ? 0.036

# repeat for CC(=Cc1ccccc1)C(=O)O [Acid 123] -0.00464

Next entry: C/C(=C\c1ccccc1)C(=O)NC[C@@H]1NC(=O)[C@@H]2CN(CCO2)C(=O)CCSSCCNC(=O)[C@H](Cc2c[nH]c3cc(Cl)ccc23)NC1=O [X-Cop-Dap-Cl-Trp + Acid 123] 0.012

Similarly, CC(=Cc1ccccc1)C(=O)NCC1NC(=O)C2CN(CCO2)C(=O)CCSSCCNC(=O)C(Cc2cn(C)c3ccccc23)NC1=O (stereo not drawn) [X-Cop-Dap-Me-Trp + Acid 123] ? -0.037

Try this compound too: O=C(NC[C@@H]1NC(=O)[C@H]2CCCN(C2)C(=O)CCSSCCNC(=O)[C@H](Cc2c[nH]c3cc(Cl)ccc23)NC1=O)c1cnc2ccccc2n1 [X-Nip-Dap-Cl-Trp + Acid 130] 0.044

Try the compound O=C(/C=C/c1cccc(C(F)(F)F)c1)NC[C@@H]1NC(=O)[C@H]2CCCN(C2)C(=O)CCSSCCNC(=O)[C@H](Cc2ccc3ccccc3c2)NC1=O [X-Nip-Dap-2-Nal + Acid 122] 0.012

Check O=C(/C=C/c1ccc(F)cc1)NC[C@@H]1NC(=O)C2(CC2)CNC(=O)CCSSCCNC(=O)[C@H](Cc2c[nH]c3ccccc23)NC1=O [X-Amcp-Dap-Trp + Acid 116] too. 0.077

Can you handle CC(=Cc1ccccc1)C(=O)NCC1NC(=O)C2CCCN(C2)C(=O)CCSSCCNC(=O)C(Cc2cccc3ccccc23)NC1=O (stereo not drawn) [X-Nip-Dap-1-NaI + Acid 123] next? -0.013

Follow-up item: CCOc1ccc(C=CC(=O)NCC2NC(=O)C3CN(CCO3)C(=O)CCSSCCNC(=O)C(Cc3cn(C)c4ccccc34)NC2=O)cc1 (stereo not drawn) [X-Cop-Dap-Me-Trp + Acid 117] 0.052

Ok, now O=C(NC[C@@H]1NC(=O)[C@H]2CCCN(C2)C(=O)CCSSCCNC(=O)[C@H](Cc2c[nH]c3ccccc23)NC1=O)c1cnc2ccccc2n1 [X-Nip-Dap-Trp + Acid 130] 0.036

And what about the compound CCCOc1ccc(C=CC(=O)NCC2NC(=O)C3CN(CCO3)C(=O)CCSSCCNC(=O)C(Cc3c[nH]c4ccccc34)NC2=O)cc1 (stereo not drawn) [X-Cop-Dap-Trp + Acid 118] ? 0.158

Moving on to the next compound: CC(C)c1ccc(/C=C/C(=O)NC[C@@H]2NC(=O)[C@H]3CCCN(C3)C(=O)CCSSCCNC(=O)[C@H](Cc3c[nH]c4cc(Cl)ccc34)NC2=O)cc1 [X-Nip-Dap-Cl-Trp + Acid 127] 0.109

* * *

I'd appreciate it if you could supply fraction fluorescent probe displaced, Replicate values for the items below.
target: MDM2 (Homo sapiens, UniProt Q00987); assay: MDM2 binding screen: displacement of fluorescent p53 peptide probe FP53 (fluorescence polarization); conditions: Acid 14; replicate; crude macrocycle reactions
Sequence (Q00987 whole entry): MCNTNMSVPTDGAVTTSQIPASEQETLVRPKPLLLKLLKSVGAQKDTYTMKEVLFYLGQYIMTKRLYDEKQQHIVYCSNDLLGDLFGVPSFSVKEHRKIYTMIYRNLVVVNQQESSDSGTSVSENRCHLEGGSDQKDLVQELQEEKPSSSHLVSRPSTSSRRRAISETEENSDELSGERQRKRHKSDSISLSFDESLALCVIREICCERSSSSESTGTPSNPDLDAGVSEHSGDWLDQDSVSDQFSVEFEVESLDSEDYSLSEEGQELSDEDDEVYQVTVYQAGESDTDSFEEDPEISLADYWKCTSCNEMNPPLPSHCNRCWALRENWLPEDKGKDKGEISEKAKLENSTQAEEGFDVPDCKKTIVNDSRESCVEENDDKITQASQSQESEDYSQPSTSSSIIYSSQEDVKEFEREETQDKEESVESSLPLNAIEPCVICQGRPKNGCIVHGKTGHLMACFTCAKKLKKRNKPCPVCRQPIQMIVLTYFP
Numbered stars: 1 amine (or outer) side, 2 acyl side, 3 side chain; on linkers, the order of the positions; unused ones are H or OH. Bridge positions count the residues as written; N and C are the ends. Square brackets hold non-standard residues; d marks the D form. Peptide text beside a SMILES is read from it. Pro(4S-NHCO(5-Cl-2-thienyl)) = O=C(N[C@@H]1CN[C@H](C(=O)O)C1)c1ccc(Cl)s1; Cysteamide = C(CS[*:3])N[*:1]; Mpa = O=C(O)CCS
API doc: respond with a numeric literal and nothing else, no unit.

Quick check: fraction fluorescent probe displaced, Replicate of O=C1CCSSCCNC(=O)[C@H](Cc2c[nH]c3ccccc23)NC(=O)CCNC(=O)[C@H](CNC(=O)c2ccc(Cl)s2)N1 [X D3 B2 W Acid 14] ? 0.25

// next record O=C1CCSSCCNC(=O)[C@@H]2CCCN2C(=O)[C@@H]2C[C@H](NC(=O)c3ccc(Cl)s3)CN2C(=O)[C@H](Cc2c[nH]c3ccccc23)N1 [X W D5 B1 Acid 14] ([Mpa]W[Pro(4S-NHCO(5-Cl-2-thienyl))]P-Cysteamide; disulfide 1-C) 0.22

For O=C1CCSSCCNC(=O)[C@H]2CCCN(C2)C(=O)C2(CCN(C(=O)c3ccc(Cl)s3)CC2)NC(=O)[C@H](Cc2ccccc2)N1 [X F D6 B4 Acid 14] then? 0.10

Do the same for O=C1CCSSCCNC(=O)C2CCCN(C2)C(=O)C2CN(C(=O)c3ccc(Cl)s3)CCN2C(=O)C(Cc2ccccc2)N1 (centres unmarked) [X F D7 B4 Acid 14] please 0.12

Field entry: O=C1CCNC(=O)C2CN(C(=O)c3ccc(Cl)s3)CCN2C(=O)CCSSCCNC(=O)C(Cc2c[nH]c3ccccc23)N1 (centres unmarked) [X D7 B2 W Acid 14] 0.12

* * *

target: MDM2 (Homo sapiens, UniProt Q00987); test: MDM2 binding screen: displacement of fluorescent p53 peptide probe FP53 (fluorescence polarization); details: Acid 91; replicate; crude macrocycle reactions
Everything with fraction fluorescent probe displaced, Replicate lower than 0.04 is Not met; everything else, including exactly 0.04, is Met.

Exam item: decide whether the reported fraction fluorescent probe displaced, Replicate for O=C(C=Cc1ccccc1)NC1CC2C(=O)NC(Cc3c[nH]c4ccccc34)C(=O)NCCSSCCC(=O)NCCC(=O)N2C1 (stereo not drawn) is at least 0.04. Not met

Also need O=C1CCSSCCNC(=O)C2CN(C(=O)C=Cc3ccccc3)CCN2C(=O)C2CCCN(C2)C(=O)C(Cc2ccccc2)N1 (stereo not drawn) , thanks. Not met

Queued: O=C(/C=C/c1ccccc1)NC[C@@H]1NC(=O)[C@H](Cc2c[nH]c3ccccc23)NC(=O)[C@H]2CCCN(C2)C(=O)CCSSCCNC1=O Met

Quick one: O=C(/C=C/c1ccccc1)N[C@H]1C[C@H]2C(=O)NCc3cccc(c3)C(=O)N[C@@H](Cc3c[nH]c4ccccc34)C(=O)NCCSSCCC(=O)N2C1 Met

Let us now turn to O=C1CCSSCCNC(=O)C2CN(C(=O)C=Cc3ccccc3)CCN2C(=O)c2cccc(c2)CNC(=O)C(Cc2c[nH]c3ccccc23)N1 (stereo not drawn) Not met

And what about the molecule O=C1CCSSCCNC(=O)c2cccc(c2)CNC(=O)C2(CCN(C(=O)/C=C/c3ccccc3)CC2)NC(=O)[C@H](Cc2c[nH]c3ccccc23)N1 ? Met

Next: O=C(/C=C/c1ccccc1)NC[C@@H]1NC(=O)CCNC(=O)CCSSCCNC(=O)[C@H](Cc2ccccc2)NC1=O Not met

Okay, and O=C1CCSSCCNC(=O)C2(CCN(C(=O)C=Cc3ccccc3)CC2)NC(=O)CCNC(=O)C(Cc2ccccc2)N1 (stereo not drawn) ? Not met
